# targetSystem: TRIP8b-HCN1c40 (Homo sapiens (Human), UniProt Q8IYB4)
# Sequence (Q8IYB4 265-626): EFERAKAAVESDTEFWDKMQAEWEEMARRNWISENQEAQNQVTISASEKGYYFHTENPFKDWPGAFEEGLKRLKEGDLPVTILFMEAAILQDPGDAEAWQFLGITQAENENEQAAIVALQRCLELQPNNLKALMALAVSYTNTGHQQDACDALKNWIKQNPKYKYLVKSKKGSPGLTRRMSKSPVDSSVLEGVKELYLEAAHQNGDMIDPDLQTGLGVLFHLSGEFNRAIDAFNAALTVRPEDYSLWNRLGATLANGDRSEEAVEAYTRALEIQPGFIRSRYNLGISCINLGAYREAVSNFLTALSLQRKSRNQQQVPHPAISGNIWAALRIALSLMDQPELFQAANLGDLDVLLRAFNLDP
# assayName: TRIP8b-HCN1c40 AlphaScreen assay
# Type: binding
# runParameters: read-out: TRIP8b-HCN1c40 Alphascreen IC50
I'd be grateful if you could share measured IC50 for these entries.

Completed entries (count: 8):
CN1CCN(Cc2cc(-c3ccc(N)cc3)ccc2OCC(=O)NCc2ccc(Cl)cc2)CC1	18 µM
Cc1ccc(-c2ccc(OCC(=O)Nc3ccc4c(c3)OCO4)c(CN3CCCN(C)CC3)c2)cc1	9.2 µM
Cc1ccc([C@@H](C)NC(=O)C(C)Oc2ccc(-c3ccc(Cl)cc3)cc2CN2CCN(C)CC2)cc1 (stereo partly shown)	0.84 µM
COc1ccc(NC(=O)COc2ccc(-c3cccc(C)c3)cc2CN2CC[C@H](N)C2)cn1	24 µM
Cc1cccc(-c2ccc(OCC(=O)Nc3ccc(O)cc3)c(CN3CC[C@H](N)C3)c2)c1	20 µM
CN1CCN(Cc2cc(-c3ccc(Cl)c(Cl)c3)ccc2OCC(=O)N2Cc3ccc(Cl)cc3C2)CC1	1.9 µM
CN1CCN(Cc2ccc(-c3ccc(Cl)cc3)cc2OCC(=O)NCc2ccc(Cl)cc2)CC1	1 µM
Cc1ccc(C(C)NC(=O)C(C)Oc2ccc(-c3cc(Cl)cc(-c4cc(Cl)cc(Cl)c4)c3)cc2CN2CCN(C)CC2)cc1 (stereo not shown)	< 0.74 µM

Quick request: IC50 for each listed item, please.
1. CN1CCN(Cc2cc(-c3cc(Cl)cc(Cl)c3)ccc2OCC(=O)Nc2ccc(Cl)c(Cl)c2)CC1
2. CN1CCN(Cc2cc(-c3ccc(Cl)c(Cl)c3)ccc2OCC(=O)NCc2ccc([N+](=O)[O-])cc2)CC1

< 0.74 µM
2.5 µM
